Molecular target: IGFR-1 (Homo sapiens, UniProt P08069)
Construct: Kinases are expressed as either kinase domains or full length constructs; made in house
Sequence (P08069 31-1367): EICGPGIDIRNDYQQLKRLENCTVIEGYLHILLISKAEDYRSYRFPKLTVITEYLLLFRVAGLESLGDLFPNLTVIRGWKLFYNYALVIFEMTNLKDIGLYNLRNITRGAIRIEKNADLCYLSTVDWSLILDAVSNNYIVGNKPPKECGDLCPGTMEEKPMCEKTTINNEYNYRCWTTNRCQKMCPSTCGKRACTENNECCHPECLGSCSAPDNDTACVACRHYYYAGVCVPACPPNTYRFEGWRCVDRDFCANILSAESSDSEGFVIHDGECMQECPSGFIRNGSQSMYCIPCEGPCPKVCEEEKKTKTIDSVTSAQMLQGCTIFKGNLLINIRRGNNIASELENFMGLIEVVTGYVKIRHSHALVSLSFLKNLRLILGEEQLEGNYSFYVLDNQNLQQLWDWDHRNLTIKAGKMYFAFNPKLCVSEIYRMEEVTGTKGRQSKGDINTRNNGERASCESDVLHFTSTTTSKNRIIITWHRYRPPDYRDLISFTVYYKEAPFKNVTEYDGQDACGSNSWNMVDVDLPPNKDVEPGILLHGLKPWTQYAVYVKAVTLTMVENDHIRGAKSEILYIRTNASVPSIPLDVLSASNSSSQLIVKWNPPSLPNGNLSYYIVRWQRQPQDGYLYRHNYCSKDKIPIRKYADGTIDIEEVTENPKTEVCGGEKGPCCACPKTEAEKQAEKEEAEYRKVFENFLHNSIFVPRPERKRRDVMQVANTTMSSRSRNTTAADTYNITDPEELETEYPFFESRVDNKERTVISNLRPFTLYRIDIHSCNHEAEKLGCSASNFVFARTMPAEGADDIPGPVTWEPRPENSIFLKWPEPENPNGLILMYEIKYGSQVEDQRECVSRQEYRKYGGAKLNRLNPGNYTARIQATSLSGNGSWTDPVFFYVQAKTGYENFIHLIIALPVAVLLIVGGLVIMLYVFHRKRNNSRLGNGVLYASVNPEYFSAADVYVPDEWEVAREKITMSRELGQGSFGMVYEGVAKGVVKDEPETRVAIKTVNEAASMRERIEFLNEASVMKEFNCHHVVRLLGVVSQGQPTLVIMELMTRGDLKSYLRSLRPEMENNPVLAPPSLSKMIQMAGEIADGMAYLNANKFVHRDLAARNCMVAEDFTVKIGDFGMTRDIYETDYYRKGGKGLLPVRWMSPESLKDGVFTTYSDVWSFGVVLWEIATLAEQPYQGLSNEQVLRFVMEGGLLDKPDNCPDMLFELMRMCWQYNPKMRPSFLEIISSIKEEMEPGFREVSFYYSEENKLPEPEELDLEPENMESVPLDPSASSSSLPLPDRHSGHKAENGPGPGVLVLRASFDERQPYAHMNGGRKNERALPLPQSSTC
Assay: Kinase inhibition assay (33P transfer), IGFR-1
Type: biochemical
Conditions: Table 2, kinase inhibition class
pIC50: −log10 of the molar value.
observed.property: pIC50

Give the reported pIC50 for this compound. COc1cc(Nc2ncnc(Nc3cccc(F)c3)n2)cc(OC)c1OC
> 5.97

Give the reported pIC50 for this compound. COc1cc(Nc2ncnc(-n3c(N)nc4ccccc43)n2)ccc1OCCn1ccnn1
> 6.05

Give the reported pIC50 for this compound. CCOC(=O)Cc1ccc(Nc2ncnc(-c3ccccc3)n2)cc1
< 4.87

Give the reported pIC50 for this compound. Oc1ccc(Nc2ncnc(Nc3ccc(OCc4ccccc4)cc3)n2)cc1
5.04 to 5.21

Give the reported pIC50 for this compound. COc1cc(Nc2ncnc(N3CCOCC3)n2)cc(OC)c1OC
< 4.89

----------
Biological target: AKT (Homo sapiens)
Construct: Kinases are expressed as either kinase domains or full length constructs; made in house
Sequence (Q9Y243 whole entry, the tested form may be a part): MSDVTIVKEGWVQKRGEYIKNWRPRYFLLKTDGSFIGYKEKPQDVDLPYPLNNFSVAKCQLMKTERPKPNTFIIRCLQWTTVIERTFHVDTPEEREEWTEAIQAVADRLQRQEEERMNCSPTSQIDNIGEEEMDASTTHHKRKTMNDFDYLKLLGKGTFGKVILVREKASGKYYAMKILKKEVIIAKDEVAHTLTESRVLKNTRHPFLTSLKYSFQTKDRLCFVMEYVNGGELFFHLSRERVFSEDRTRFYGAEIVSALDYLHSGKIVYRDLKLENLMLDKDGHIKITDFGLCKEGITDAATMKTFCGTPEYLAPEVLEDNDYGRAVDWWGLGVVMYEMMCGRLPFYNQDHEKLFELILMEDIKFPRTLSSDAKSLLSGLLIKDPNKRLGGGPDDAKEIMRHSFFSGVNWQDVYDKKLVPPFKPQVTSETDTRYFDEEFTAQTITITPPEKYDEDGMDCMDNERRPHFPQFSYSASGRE
Experiment: Kinase inhibition assay (33P transfer), AKT
Assay type: biochemical
Settings: Table 2, kinase inhibition class; read-out: AKT3-1
pIC50: −log10 of the molar value.
I'd appreciate it if you could supply pIC50 values for the items below.

Give the reported pIC50 for this compound. NC(=O)c1ccccc1Nc1ncnc(-n2c(N)nc3ccccc32)n1 [Compound 473]
< 4.89

Give the reported pIC50 for this compound. Nc1nc2ccccc2n1-c1ncnc(Cl)n1 [Compound 1029]
< 4.74

Give the reported pIC50 for this compound. COc1ccc(Oc2ncnc(Nc3cc(OC)c(OC)c(OC)c3)n2)cc1 [Compound 174]
< 4.93

Give the reported pIC50 for this compound. COc1cc(Nc2ncnc(Nc3ccc(Oc4ccccc4)cc3)n2)cc(OC)c1OC [Compound 29]
< 5.00

Give the reported pIC50 for this compound. COc1cc(Nc2ncnc(-n3c(NCc4cccc(F)c4)nc4ccccc43)n2)cc(OC)c1OC [Compound 513]
< 5.05

Give the reported pIC50 for this compound. COc1ccc([C@@H](C)Nc2nc3ccccc3n2-c2ncnc(Nc3cc(OC)c(OC)c(OC)c3)n2)cc1 [Compound 1045]
< 5.07

Give the reported pIC50 for this compound. COc1cc(Nc2ncnc(-n3c(NCc4ncc[nH]4)nc4ccccc43)n2)cc(OC)c1OC [Compound 583]
< 5.02

Give the reported pIC50 for this compound. COc1cc(Nc2ncnc(N3CCc4ccccc4C3)n2)cc(OC)c1OC [Compound 326]
< 4.94

----------
I'd appreciate it if you could supply IC50 values for the items below.
Molecular target: EGFR (Homo sapiens, UniProt P00533)
Construct: Kinases are expressed as either kinase domains or full length constructs; made in house
Sequence (P00533 25-1210, species assumed): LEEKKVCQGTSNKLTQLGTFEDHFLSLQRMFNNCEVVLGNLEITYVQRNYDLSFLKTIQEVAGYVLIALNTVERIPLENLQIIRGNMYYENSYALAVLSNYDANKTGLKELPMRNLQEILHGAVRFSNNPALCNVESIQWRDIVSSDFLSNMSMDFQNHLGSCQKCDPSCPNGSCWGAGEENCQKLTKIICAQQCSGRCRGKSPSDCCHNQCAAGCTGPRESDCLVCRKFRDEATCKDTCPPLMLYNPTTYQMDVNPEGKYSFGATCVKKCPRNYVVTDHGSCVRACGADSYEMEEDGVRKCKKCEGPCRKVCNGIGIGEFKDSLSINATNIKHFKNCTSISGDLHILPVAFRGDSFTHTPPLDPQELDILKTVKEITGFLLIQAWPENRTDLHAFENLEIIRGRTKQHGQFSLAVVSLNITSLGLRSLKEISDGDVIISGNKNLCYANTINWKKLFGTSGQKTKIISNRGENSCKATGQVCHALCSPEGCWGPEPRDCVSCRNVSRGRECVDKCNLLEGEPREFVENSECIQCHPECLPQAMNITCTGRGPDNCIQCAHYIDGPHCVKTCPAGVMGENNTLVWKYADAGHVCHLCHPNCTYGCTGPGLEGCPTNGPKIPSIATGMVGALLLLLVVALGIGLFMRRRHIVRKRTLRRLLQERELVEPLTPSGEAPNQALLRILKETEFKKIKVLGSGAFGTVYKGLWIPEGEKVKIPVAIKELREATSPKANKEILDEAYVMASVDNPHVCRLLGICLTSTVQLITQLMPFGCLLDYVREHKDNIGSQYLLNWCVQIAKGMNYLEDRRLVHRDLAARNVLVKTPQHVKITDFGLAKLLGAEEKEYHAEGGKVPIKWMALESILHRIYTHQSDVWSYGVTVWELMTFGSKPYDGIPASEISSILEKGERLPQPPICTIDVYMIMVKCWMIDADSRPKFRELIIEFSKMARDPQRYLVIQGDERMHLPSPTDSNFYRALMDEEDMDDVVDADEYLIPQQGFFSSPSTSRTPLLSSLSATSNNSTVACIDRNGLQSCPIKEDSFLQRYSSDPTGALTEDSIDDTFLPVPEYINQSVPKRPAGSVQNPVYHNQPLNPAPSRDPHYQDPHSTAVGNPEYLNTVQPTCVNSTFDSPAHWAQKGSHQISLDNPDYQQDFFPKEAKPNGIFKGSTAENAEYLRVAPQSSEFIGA
Experiment: Kinase inhibition assay (33P transfer), EGFR
Type: biochemical
Conditions: Table 2, kinase inhibition class; read-out: EGFR-1
Description: The inhibitor compounds described herein are screened in the following manner. […] Kinases are expressed as either kinase domains or full length constructs fused to glutathione S-transferase (GST) or polyHistidine tagged fusion proteins in either E. colior Baculovirus-High Five expression systems. […] Kinase activity and inhibition are measured essentially by established protocols (Braunwalder et al., 1996). […]

Give the reported IC50 for this compound. CC(C)Nc1ncccc1-c1ncnc(Nc2ccc(C(N)=O)cc2)n1
> 12.9 µM

Give the reported IC50 for this compound. CC(=O)Nc1ccc(Nc2ncnc(-n3c(N)nc4ccccc43)n2)cc1
> 12.5 µM

Give the reported IC50 for this compound. COc1ccc(CNc2nc3ccccc3n2-c2ncnc(Nc3cccc(CC(=O)O)c3)n2)cc1
> 9.35 µM

Give the reported IC50 for this compound. COc1cccc(Nc2ncnc(Nc3ccc(OCc4ccccc4)cc3)n2)c1
1 to 6.01 µM

Give the reported IC50 for this compound. COc1cc(Nc2ncnc(-c3c(O)n(C)c4ccccc34)n2)cc(OC)c1OC
> 11 µM

Give the reported IC50 for this compound. COc1ccc(Nc2ncnc(NCCCOC(C)C)n2)cc1OC
> 13 µM

Give the reported IC50 for this compound. CN(c1cccc(Cl)c1)c1ncnc(Nc2ccc(S(C)(=O)=O)cc2)n1
< 1.03 µM

Give the reported IC50 for this compound. COc1cccc(-c2ncnc(Nc3cc(OC)c(OC)c(OC)c3)n2)c1
6.51 to 9.5 µM

Give the reported IC50 for this compound. COc1cc(Nc2ncnc(-n3c(NCc4ccc(C)cc4)nc4ccccc43)n2)cc(OC)c1OC
> 9.04 µM

Give the reported IC50 for this compound. COc1ccc2c(c1)c(CCNC(C)=O)cn2-c1ncnc(Nc2cc(OC)c(OC)c(OC)c2)n1
> 9.14 µM

Give the reported IC50 for this compound. COc1cccc(Nc2ncnc(-n3c(N)nc4ccccc43)n2)c1
7.2 to 10.5 µM

Give the reported IC50 for this compound. CC(=O)NS(=O)(=O)c1ccc(Nc2ncnc(-n3c(N)nc4ccccc43)n2)cc1
0.942 to 5.65 µM

Give the reported IC50 for this compound. COc1cc(Nc2ncnc(-n3c(NCc4ccc(Cl)cc4F)nc4ccccc43)n2)cc(OC)c1OC
> 8.4 µM

Give the reported IC50 for this compound. COc1ccc(Nc2ncnc(Nc3cccc(Br)c3)n2)cc1OC
< 0.994 µM

Give the reported IC50 for this compound. Oc1cccc(Nc2ncnc(Nc3ccc(OCc4ccccc4)cc3)n2)c1
< 1.04 µM

Give the reported IC50 for this compound. COc1cc(Nc2ncnc(-c3cccnc3NCc3ccc(F)cc3)n2)cc(OC)c1OC
> 9.73 µM

Give the reported IC50 for this compound. COc1cc(Nc2ncnc(Nc3[nH]ncc3-c3ccccc3)n2)cc(OC)c1OC
> 10.7 µM

Give the reported IC50 for this compound. COc1cc(Nc2ncnc(Nc3ccc(OCc4ccccc4)cc3)n2)cc(OC)c1OC
0.871 to 5.22 µM

----------
Form: system (Src (Homo sapiens)), quantity (IC50), values below.

Give the reported IC50 for this molecule. COc1ccccc1Nc1ncnc(Nc2cc(OC)c(OC)c(OC)c2)n1
1.04 to 6.26 µM

Give the reported IC50 for this molecule. COc1cc(Nc2ncnc(N(c3ccccc3)c3nc4ccccc4[nH]3)n2)cc(OC)c1OC
5.11 to 7.45 µM

Give the reported IC50 for this molecule. COc1cc(Nc2ncnc(-n3c(Nc4cccc(C(N)=O)c4)nc4ccccc43)n2)cc(OC)c1OC
> 8.78 µM

Give the reported IC50 for this molecule. COc1cc(Nc2ncnc(-n3c(=O)[nH]c4ccccc43)n2)cc(OC)c1OC
> 11.4 µM

----------
Target: Kdr (Homo sapiens)
Construct: Kinases are expressed as either kinase domains or full length constructs; made in house
Sequence (P35968 20-1356, species assumed): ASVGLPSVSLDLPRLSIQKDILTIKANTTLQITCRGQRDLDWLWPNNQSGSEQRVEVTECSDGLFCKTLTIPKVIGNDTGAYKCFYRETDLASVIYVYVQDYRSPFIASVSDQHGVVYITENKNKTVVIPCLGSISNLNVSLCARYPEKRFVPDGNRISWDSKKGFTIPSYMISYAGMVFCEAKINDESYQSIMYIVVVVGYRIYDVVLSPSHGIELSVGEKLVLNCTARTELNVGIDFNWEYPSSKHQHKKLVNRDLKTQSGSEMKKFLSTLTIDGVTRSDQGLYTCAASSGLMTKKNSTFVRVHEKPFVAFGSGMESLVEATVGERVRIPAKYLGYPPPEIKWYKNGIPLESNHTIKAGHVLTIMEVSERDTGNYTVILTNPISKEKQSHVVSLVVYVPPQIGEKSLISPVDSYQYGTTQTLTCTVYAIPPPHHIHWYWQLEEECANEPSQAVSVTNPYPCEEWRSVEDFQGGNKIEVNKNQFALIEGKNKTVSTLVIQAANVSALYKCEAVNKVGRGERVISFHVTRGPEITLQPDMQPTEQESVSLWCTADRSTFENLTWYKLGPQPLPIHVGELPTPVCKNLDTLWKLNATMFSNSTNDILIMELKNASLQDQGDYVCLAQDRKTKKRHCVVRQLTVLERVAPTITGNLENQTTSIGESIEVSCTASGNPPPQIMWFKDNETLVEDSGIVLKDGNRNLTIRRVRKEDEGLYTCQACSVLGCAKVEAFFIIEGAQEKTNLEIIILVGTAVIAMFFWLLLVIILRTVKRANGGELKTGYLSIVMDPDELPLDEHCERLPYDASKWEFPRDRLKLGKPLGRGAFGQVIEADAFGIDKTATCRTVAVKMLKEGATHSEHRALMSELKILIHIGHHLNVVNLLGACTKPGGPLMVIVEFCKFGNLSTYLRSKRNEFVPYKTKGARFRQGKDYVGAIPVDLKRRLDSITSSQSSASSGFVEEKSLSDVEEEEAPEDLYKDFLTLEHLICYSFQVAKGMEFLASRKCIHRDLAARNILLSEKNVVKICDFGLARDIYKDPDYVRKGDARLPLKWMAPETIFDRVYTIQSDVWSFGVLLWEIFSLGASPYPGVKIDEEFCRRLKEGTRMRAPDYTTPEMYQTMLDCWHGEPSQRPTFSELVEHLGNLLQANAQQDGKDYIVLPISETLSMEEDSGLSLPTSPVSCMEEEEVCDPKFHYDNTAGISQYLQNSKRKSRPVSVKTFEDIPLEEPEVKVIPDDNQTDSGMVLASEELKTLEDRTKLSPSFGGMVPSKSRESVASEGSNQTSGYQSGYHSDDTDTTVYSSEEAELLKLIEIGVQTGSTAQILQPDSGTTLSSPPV
Assay: Kinase inhibition assay (33P transfer), Kdr
Type: biochemical
Settings: Table 3; read-out: KDR-1
pIC50: −log10 of the molar value.
observed.property: pIC50

Give the reported pIC50 for this compound. COc1cc(Nc2ncnc(N(CC(=O)OC(C)(C)C)c3ccc(Cl)cc3)n2)cc(OC)c1OC
5.16 to 5.32

Give the reported pIC50 for this compound. Oc1cccc(Nc2ncnc(-c3ccccc3)n2)c1
4.88 to 5.04

Give the reported pIC50 for this compound. COc1cc(Nc2ncnc(Nc3ccc(Oc4ccccc4)cc3)n2)cc(OC)c1OC
> 6.05

Give the reported pIC50 for this compound. COc1cc(Nc2ncnc(N(C/C=C/c3ccccc3)c3ccc(Cl)cc3)n2)cc(OC)c1OC
5.32 to 6.10

Give the reported pIC50 for this compound. O=c1[nH]c2ccccc2n1-c1ncnc(Nc2ccc(F)c(Cl)c2)n1
5.17 to 5.95

Give the reported pIC50 for this compound. COc1cc(Nc2ncnc(Nc3ccncc3)n2)cc(OC)c1OC
< 4.90

Give the reported pIC50 for this compound. COc1cc(Nc2ncnc(Nc3ccc(C)cc3)n2)cc(OC)c1OC
> 5.96

Give the reported pIC50 for this compound. COc1cc(Nc2ncnc(-n3c(NCc4ccccc4)nc4ccccc43)n2)cc(OC)c1OC
> 6.08

Give the reported pIC50 for this compound. COc1cc(Nc2ncnc(Nc3cc(-c4ccco4)n[nH]3)n2)cc(OC)c1OC
> 6.01

Give the reported pIC50 for this compound. C=CCNc1cc(-c2ncnc(Nc3cc(OC)c(OC)c(OC)c3)n2)ccn1
5.22 to 5.99

Give the reported pIC50 for this compound. COc1cc(Nc2ncnc(Nc3ccc4c(c3)Cc3ccccc3-4)n2)cc(OC)c1OC
5.26 to 6.04

Give the reported pIC50 for this compound. COc1cc(Nc2ncnc(Nc3nc4ccc(F)cc4s3)n2)cc(OC)c1OC
5.25 to 6.03

Give the reported pIC50 for this compound. COc1ccc(Nc2ncnc(-c3ccccc3)n2)cc1
< 4.79

Give the reported pIC50 for this compound. COc1cc(Nc2ncnc(N3CCC(O)CC3)n2)cc(OC)c1OC
5.18 to 5.96

Give the reported pIC50 for this compound. COc1cc(Nc2ncnc(-n3c(N)nc4ccccc43)n2)cc(OC)c1OCCN1CCOCC1
> 6.09

Give the reported pIC50 for this compound. COc1ccc(Nc2ncnc(Nc3cc(OC)c(OC)c(OC)c3)n2)cc1OC
> 6.01

Give the reported pIC50 for this compound. Oc1cccc(Nc2ncnc(Nc3ccc(OCc4ccccc4)cc3)n2)c1
5.04 to 5.21

Give the reported pIC50 for this compound. Fc1ccccc1Nc1ncnc(-c2ccccc2)n1
< 4.77

Give the reported pIC50 for this compound. COc1cc(Nc2ncnc(-n3ccc4c(OC)cccc43)n2)cc(OC)c1OC
5.23 to 6.01

Give the reported pIC50 for this compound. COc1cc(Nc2ncnc(-n3c(N(C)C)nc4ccccc43)n2)cc(OC)c1OC
5.24 to 6.02

Give the reported pIC50 for this compound. COc1ccc(CNc2ncnc(Nc3cc(OC)c(OC)c(OC)c3)n2)cc1
< 4.95

Give the reported pIC50 for this compound. COc1cc(Nc2ncnc(Nc3ccc(N4CCOCC4)cc3)n2)cc(OC)c1OC
5.26 to 6.04

Give the reported pIC50 for this compound. COc1ccc2c(c1)c(CCN(C)C)cn2-c1ncnc(Nc2cc(OC)c(OC)c(OC)c2)n1
< 5.03

Give the reported pIC50 for this compound. O=c1[nH]c2ccccc2n1-c1ncnc(Nc2cccc(Cl)c2)n1
5.15 to 5.93

Give the reported pIC50 for this compound. COc1cc(Nc2ncnc(-n3ccc4ccc(F)cc43)n2)cc(OC)c1OC
5.22 to 5.99

Give the reported pIC50 for this compound. O=c1[nH]c2ccccc2n1-c1ncnc(Nc2ccc(-c3cnco3)cc2)n1
4.92 to 5.03

Give the reported pIC50 for this compound. COc1cc(Nc2ncnc(Nc3cc(-c4ccccc4)n[nH]3)n2)cc(OC)c1OC
> 6.02

Give the reported pIC50 for this compound. COc1cc(Nc2ncnc(N3CCN(c4ncccn4)CC3)n2)cc(OC)c1OC
5.25 to 6.03

Give the reported pIC50 for this compound. CC(=O)NS(=O)(=O)c1ccc(Nc2ncnc(-n3c(=O)[nH]c4ccccc43)n2)cc1
5.25 to 6.03

Give the reported pIC50 for this compound. COc1cc(Nc2ncnc(-c3ccccc3)n2)cc(OC)c1
< 4.84

Give the reported pIC50 for this compound. COCCOc1ccc(Nc2ncnc(Nc3ccc(C)c(O)c3)n2)cc1OC
> 6.00

Give the reported pIC50 for this compound. COc1cc(Nc2ncnc(Nc3cc(OC)c(OC)c(OC)c3)n2)cc(OC)c1OC
5.27 to 6.04

Give the reported pIC50 for this compound. COc1cc(Nc2ncnc(-n3c(=O)sc4ccccc43)n2)cc(OC)c1OC
5.07 to 5.23

Give the reported pIC50 for this compound. COc1cc(Nc2ncnc(Nc3ccc(C(N)=O)cc3)n2)cc(OC)c1OC
5.22 to 6.00

Give the reported pIC50 for this compound. COc1cc(Nc2ncnc(NC(=O)Nc3ccccc3)n2)cc(OC)c1OC
5.05 to 5.22
